B1: SMTNL2 (parent)
chain: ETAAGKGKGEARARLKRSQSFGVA

# Variants of: B1
# PROTOCOL: protein stability index of a GFP-peptide fusion (GPS, HEK-293T) (PSI 1-6); higher = more stable;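 also: lentivirally expressed fusions sorted by FACS into six bins by GFP to DsRed ratio, PSI derived from sequencing read proportions per bin multiplied by bin number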
# APPLIED CONDITIONS: c terminus: a fixed tail appended
REPORTED METRIC: protein stability index
Output spec: single numeric token, no unit.

Input line: Entry under review: S18N . Reported protein stability index?
Output line: 4.5

Input line: Then what about the variant G22K ?
Output line: 4.81

Input line: Then what about the variant L15I ?
Output line: 4.51

Input line: Then what about the variant S20H ?
Output line: 4.26

Input line: Then what about the variant G7L ?
Output line: 4.26

Input line: Then what about the variant K6S ?
Output line: 4.62

Input line: Then what about the variant R14L ?
Output line: 4.29

Input line: Then what about the variant F21C ?
Output line: 5.02

Input line: Then what about the variant V23F ?
Output line: 3.98

Input line: Then what about the variant S20V ?
Output line: 4.27

Input line: Then what about the variant S18G ?
Output line: 4.6

Input line: Then what about the variant A24N ?
Output line: 5.09

Input line: Then what about the variant Q19E ?
Output line: 5.15

Input line: Then what about the variant Q19W ?
Output line: 4.33

Input line: Then what about the variant R12Q ?
Output line: 4.61

Input line: Then what about the variant R12T ?
Output line: 3.76

Input line: Then what about the variant G9Y ?
Output line: 4.42

Input line: Then what about the variant E10T ?
Output line: 4.38

Input line: Then what about the variant G5A ?
Output line: 4.94

Input line: Then what about the variant V23C ?
Output line: 4.83

Input line: Then what about the variant L15Y ?
Output line: 4.09

Input line: Then what about the variant Q19V ?
Output line: 3.96
